Measured superoxide response (% of plate) values are reported for all entries that follow.
Assay info: superoxide lowering in aged yeast cells, pilot screen, validation compound set (AID 2706);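 further: yeast exposed to compound for one week at 30 degrees C before staining; 100% = mean of all compound wells on the same plate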
Setup conditions: S. cerevisiae aging, superoxide DHE fluorescence; at 10 µM, hits give low values
Just the number in %, nothing appended.

CCc1cc2c(=O)c(-c3nc4ccccc4n3C)coc2c(CN2CCN(C)CC2)c1O    105
COC(=O)c1cc(-c2ccc(C)o2)nc2ccccc12    109
O=C1NC2(Nc3ccccc31)C(=O)Nc1ccc(Br)cc12 (stereo unspecified)    102
O=C(O)c1cccnc1    94.8

Would you mind telling me what superoxide response (% of plate) value was observed for `O=C(NCCCCCc1nc2ccccc2[nH]1)c1ccccc1Cl` ?
102

Would you mind telling me what superoxide response (% of plate) value was observed for `O=c1c2ccccc2nc2n1-c1ccccc1CCC2` ?
96.9
